Origin of values: patent US7998940B2

- System: full length human vWF
- assay-comment: 3-point dot blot screen, full length human vWF
- Type: binding
- settings: 20 nM full length human vWF, ratio of fraction of aptamer bound with target protein to fraction bound without protein
assay-endpoint: Screen- Human/No Protein
Give a plain numeric answer without units written out.

Sample records with Screen- Human/No Protein:
- AMX237.G6: DNA SELEX 2 aptamer clone (nucleic acid, DNA, backbone and methylation of C not given here, DNA SELEX 2 aptamer clone) DNA: CTACCTACGATCTGACTAGCGTGCAGTGCCTATTCCAGGCCGTGCGGTGCCTCCGTCACGCTTACTCTCATGTAGTTCC: 3.80
- AMX237.E9: DNA SELEX 2 aptamer clone (nucleic acid, DNA, backbone not given here, DNA SELEX 2 aptamer clone) DNA: CTACCTACGATCTGACTAGCTCCAGTGTTTTGTCTAATAACCGTGCGGTGCCTCCGTGAGCTTACTCTCATGTAGTTCC: 2.13
- AMX237.C5: DNA SELEX 2 aptamer clone (nucleic acid, DNA, backbone not given here, DNA SELEX 2 aptamer clone) DNA: CTACCTACGATCTGACTAGCGTGCAGTGCCTATCTCAGGCCGTGCGGTATCCTCCGTCACGCTTACTCTCATGTAGTTCC: 2.55

Q. # get_value(readout='Screen- Human/No Protein', item= AMX236.C1: DNA SELEX 2 aptamer clone (nucleic acid, DNA, backbone not given here, DNA SELEX 2 aptamer clone) CTACCTACGATCTGACTAGCGGAATGAGAATGTTGGTGGATTGCTCAGGTCTGCTGGCTGCTTACTCTCATGTAGTTCC )
A. 1.03
